Assay Text: TOX21_p53_BLA_p3_viability: Viability Assessment in the Tox21 HCT-116 p53 Agonism Beta-lactamase Assay, Phase 3 (AID 2283593);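 note: cells exposed to compound for 16 h before reading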
Inconclusive results are not listed. Activity calls are given as the source filed them. Rule for the calls: active = hit-call score of the fitted dose curve at least 0.9, where 1 is the maximum; inconclusive = response in the unintended direction; inactive = score below 0.9.
Possible outcomes: active, inactive

Molecule | Qualitative Label
CC(C)(C)NCC(O)CSc1nc(-c2ccc(C(N)=O)s2)cs1 (stereo not given) | inactive
CSc1nc2cc(Oc3cccc(Cl)c3Cl)c(Cl)cc2[nH]1 | active
C[Si](NC1CCCCC1)(NC1CCCCC1)NC1CCCCC1 | inactive
O=C1CCC(=O)O1 | inactive
NC(N)=Nc1nc(CSCCC(N)=NS(N)(=O)=O)cs1 | inactive
OCCOCC#CCOCCO | inactive
O=[N+]([O-])c1ccc(F)cc1F | inactive
C[C@@H]1[C@H](O)[C@@H](C)/C=C/C=C/C=C/C=C/C=C/C=C/C=C/[C@H](O[C@@H]2O[C@H](C)[C@@H](O)[C@H](N)[C@@H]2O)C[C@@H]2O[C@](O)(C[C@@H](O)C[C@@H](O)[C@H](O)CC[C@@H](O)C[C@@H](O)CC(=O)O[C@H]1C)C[C@H](O)[C@H]2C(=O)O | inactive
Cn1cc(NC(=O)c2cc(NC(=O)c3cc(NC=O)cn3C)cn2C)cc1C(=O)NCCC(=N)N | inactive
CCCCCCC/C=C/C=O | inactive
